Consider the following compounds; for each one, report its pKd.
target: AcrB (Escherichia coli, UniProt P31224); experiment: isothermal titration calorimetry (ITC); assay type: binding; conditions: read-out: KD
Sequence (P31224 whole entry): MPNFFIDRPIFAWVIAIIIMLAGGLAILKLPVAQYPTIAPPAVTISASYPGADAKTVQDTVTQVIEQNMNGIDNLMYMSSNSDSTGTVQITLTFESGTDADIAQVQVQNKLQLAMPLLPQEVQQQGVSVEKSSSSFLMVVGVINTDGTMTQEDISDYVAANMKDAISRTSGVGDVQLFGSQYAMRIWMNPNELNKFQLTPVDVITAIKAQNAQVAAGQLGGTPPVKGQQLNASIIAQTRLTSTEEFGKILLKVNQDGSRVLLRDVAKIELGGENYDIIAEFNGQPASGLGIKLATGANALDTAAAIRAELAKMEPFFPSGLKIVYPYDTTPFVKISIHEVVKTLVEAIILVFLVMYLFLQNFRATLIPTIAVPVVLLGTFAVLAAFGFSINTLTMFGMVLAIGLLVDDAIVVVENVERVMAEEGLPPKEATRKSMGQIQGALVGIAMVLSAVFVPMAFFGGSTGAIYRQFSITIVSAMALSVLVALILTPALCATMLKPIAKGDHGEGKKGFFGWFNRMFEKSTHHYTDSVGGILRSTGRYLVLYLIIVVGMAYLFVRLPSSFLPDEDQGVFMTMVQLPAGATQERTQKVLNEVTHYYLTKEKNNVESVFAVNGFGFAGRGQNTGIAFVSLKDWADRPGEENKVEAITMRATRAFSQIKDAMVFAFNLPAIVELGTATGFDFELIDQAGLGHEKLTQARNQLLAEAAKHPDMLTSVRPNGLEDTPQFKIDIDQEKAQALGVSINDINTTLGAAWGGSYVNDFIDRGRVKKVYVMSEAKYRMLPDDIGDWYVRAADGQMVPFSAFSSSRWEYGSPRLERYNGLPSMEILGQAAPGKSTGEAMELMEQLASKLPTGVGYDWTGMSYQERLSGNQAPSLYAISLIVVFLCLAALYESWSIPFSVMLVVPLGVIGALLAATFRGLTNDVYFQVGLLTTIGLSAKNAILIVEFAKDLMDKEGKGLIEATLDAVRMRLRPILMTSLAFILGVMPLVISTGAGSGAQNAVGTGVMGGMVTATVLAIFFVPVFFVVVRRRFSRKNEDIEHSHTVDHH
Note on units: pKd is unitless, being -log10 of a concentration expressed in mol/L.

Given the entry `Cc1ccc(Sc2cccc3nc(N)nc(N)c23)cc1` , report its measured pKd.
6.25

Given the entry `CC(C)(C)c1nc(NC(=N)N)sc1Br` , report its measured pKd.
5.75
